For each entry below, report its LACTATE DEHYDROGENASE value.
Organism: Rattus norvegicus
measurementNotes: DrugMatrix - Regimen: Daily Repeat
Assay type: toxicity, organism-based, Sprague-Dawley
Parameters: regimen Daily Repeat, gender Male, age 6-8 weeks
runConditions: in vivo, po, 0 mg/kg, 120 h, tissue Plasma, route oral GAVAGE, dose level Control, time 5 day, vehicle 100 % WATER
Give bare numbers, in u/L.

Cc1cn([C@H]2C=C[C@@H](CO)O2)c(=O)[nH]c1=O | 141.33
NN [HYDRAZINE] | 220.33
CCN(CC)C(=S)SSC(=S)N(CC)CC | 212.67

Items follow; give LACTATE DEHYDROGENASE for each.
1. Cc1cc(C(C)(C)C)c(O)c(C)c1CC1=NCCN1
2. CC(Cl)(Cl)Cl

Reply text:
389.5
95

Items follow; give LACTATE DEHYDROGENASE for each.
1. CCC1(c2ccccc2)C(=O)NC(=O)NC1=O
2. C[N+](C)(C)CCOC(N)=O.[Cl-]
3. C1CCN2C[C@@H]3C[C@@H](CN4CCCC[C@@H]34)[C@H]2C1

Reply text:
[146.17, 141.33, 95]

* * *

For each entry below, report its ABSOLUTE SEGMENTED NEUTROPHIL value.
Species: Rattus norvegicus
measurementNotes: DrugMatrix - Regimen: Daily Repeat
Format: toxicity, organism-based, Sprague-Dawley
Design: regimen Daily Repeat, gender Male, age 6-8 weeks
runConditions: in vivo, po, 0 mg/kg, 120 h, tissue Blood, route oral GAVAGE, dose level Control, time 5 day, vehicle 100 % WATER
Give bare numbers, in CELLS/uL.

CCC1(c2ccccc2)C(=O)NC(=O)NC1=O | 725.5
NN [HYDRAZINE] | 1283
Cc1cn([C@H]2C=C[C@@H](CO)O2)c(=O)[nH]c1=O | 503
C[N+](C)(C)CCOC(N)=O.[Cl-] | 503
Cc1cc(C(C)(C)C)c(O)c(C)c1CC1=NCCN1 | 1581.67
CCN(CC)C(=S)SSC(=S)N(CC)CC | 896.5

Items follow; give ABSOLUTE SEGMENTED NEUTROPHIL for each.
1. CC(Cl)(Cl)Cl
2. C1CCN2C[C@@H]3C[C@@H](CN4CCCC[C@@H]34)[C@H]2C1

Reply text:
674.83
674.83

* * *

Species on record: Rattus norvegicus
measurementNotes: DrugMatrix - Regimen: Daily Repeat
Assay type: toxicity, organism-based, Sprague-Dawley
Parameters: regimen Daily Repeat, gender Male, age 6-8 weeks
runConditions: in vivo, po, 0 mg/kg, 120 h, tissue Plasma, route oral GAVAGE, dose level Control, time 5 day, vehicle .5 % CMC
I would appreciate it if you labelled entries 1.0 when CHOLESTEROL is 70 mg/dL or higher, otherwise 0.0.

Solved entries:
O=C1c2ccccc2C(=O)C1c1ccccc1 [PHENINDIONE] | 0.0
CC(=O)Nc1ccc2c(c1)Cc1ccccc1-2 [2-ACETYLAMINOFLUORENE] | 1.0
NC(=O)NC(=O)Cc1ccccc1 [PHENACEMIDE] | 0.0
Nc1ccc(C(=O)O)c(O)c1 [AMINOSALICYLIC ACID] | 0.0
CCN1CCN(c2cc3c(cc2F)c(=O)c(C(=O)O)cn3C2CC2)CC1 [ENROFLOXACIN] | 1.0
CC(C)NCC(O)COc1ccc(CC(N)=O)cc1 (configuration not stated) [ATENOLOL] | 0.0
CC(C)(C#N)c1cc(Cn2cncn2)cc(C(C)(C)C#N)c1 [ANASTROZOLE] | 0.0
COc1ccc(Cl)cc1C(=O)NCCc1ccc(S(=O)(=O)NC(=O)NC2CCCCC2)cc1 [GLYBURIDE] | 0.0

Inquiry: Test whether the compound CCN(CC)CCNC(=O)c1cc(Cl)c(N)cc1OC [METOCLOPRAMIDE] records CHOLESTEROL of 70 mg/dL or higher.
Reply text: 1.0

Inquiry: Test whether the compound NCC(CC(=O)O)c1ccc(Cl)cc1 (configuration not stated) [BACLOFEN] records CHOLESTEROL of 70 mg/dL or higher.
Reply text: 1.0

Inquiry: Test whether the compound CN(C)CCOC(c1ccccc1)c1ccccc1.Cn1c(=O)c2[nH]c(Cl)nc2n(C)c1=O [DIMENHYDRINATE] records CHOLESTEROL of 70 mg/dL or higher.
Reply text: 0.0

Inquiry: Test whether the compound CC(C)Cc1ccc([C@H](C)C(=O)O)cc1 [DEXIBUPROFEN] records CHOLESTEROL of 70 mg/dL or higher.
Reply text: 0.0

Inquiry: Test whether the compound COc1cc(NC(C)CCCN)c2ncccc2c1 (configuration not stated) [PRIMAQUINE] records CHOLESTEROL of 70 mg/dL or higher.
Reply text: 0.0

Inquiry: Test whether the compound CN(C)CCC=C1c2ccccc2COc2ccccc21 [DOXEPIN] records CHOLESTEROL of 70 mg/dL or higher.
Reply text: 0.0

Inquiry: Test whether the compound CCOc1cc(N)c(Cl)cc1C(=O)NCC1CN(Cc2ccc(F)cc2)CCO1 (configuration not stated) [MOSAPRIDE] records CHOLESTEROL of 70 mg/dL or higher.
Reply text: 1.0

Inquiry: Test whether the compound CCN1C[C@]2(COC)[C@H](O)C[C@H](OC)[C@@]34[C@@H]5C[C@@]6(O)[C@H](OC(=O)c7ccccc7)[C@@H]5[C@@](OC(C)=O)([C@@H]([C@H](OC)[C@H]23)[C@@H]14)[C@@H](O)[C@@H]6OC [ACONITINE] records CHOLESTEROL of 70 mg/dL or higher.
Reply text: 0.0
